// reported inhibition at 0.1 µM for each item listed
- targetOfAssay: SHP2 (Homo sapiens, UniProt Q06124)
- Sequence (Q06124 whole entry): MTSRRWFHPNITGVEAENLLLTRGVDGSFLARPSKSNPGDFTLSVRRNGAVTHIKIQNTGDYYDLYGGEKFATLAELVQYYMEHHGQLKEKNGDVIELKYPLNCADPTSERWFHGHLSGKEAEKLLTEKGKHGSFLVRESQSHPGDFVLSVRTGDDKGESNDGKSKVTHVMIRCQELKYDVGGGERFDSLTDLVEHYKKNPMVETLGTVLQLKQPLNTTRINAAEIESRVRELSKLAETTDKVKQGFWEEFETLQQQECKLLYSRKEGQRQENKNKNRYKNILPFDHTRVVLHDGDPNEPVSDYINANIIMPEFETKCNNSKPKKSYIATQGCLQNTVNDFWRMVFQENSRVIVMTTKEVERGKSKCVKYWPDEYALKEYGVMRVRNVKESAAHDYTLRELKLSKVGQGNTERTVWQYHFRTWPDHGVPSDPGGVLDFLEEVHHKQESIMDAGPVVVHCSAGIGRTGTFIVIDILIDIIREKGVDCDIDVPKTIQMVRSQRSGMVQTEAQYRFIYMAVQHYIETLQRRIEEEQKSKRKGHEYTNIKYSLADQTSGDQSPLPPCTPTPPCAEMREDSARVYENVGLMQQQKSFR
- protocolDetails: biochemical
- measurementParameters: read-out: SHP2 inhibition (%)@0.1 μM
Hi! Could you send only the number? It should be in %, unit omitted.

Sample records with inhibition at 0.1 µM:
- molecule: "Nc1nc(N2CCC3(CC2)Cc2ccc(Br)cc2[C@H]3N)cnc1Sc1ccnc(N)c1Cl"
  propertyMeasured: "inhibition at 0.1 µM"
  measurementUnits: "%"
  recordedNumber: 75
- molecule: "Nc1nc(N2CCC3(CC2)c2ccccc2C[C@H]3N)cnc1Sc1ccnc(N)c1Cl"
  propertyMeasured: "inhibition at 0.1 µM"
  measurementUnits: "%"
  recordedNumber: 87
- molecule: "CCOP(=O)(OCC)c1ccc2c(c1)[C@@H](N)C1(CCN(c3cnc(Sc4ccnc(N)c4Cl)c(N)n3)CC1)C2"
  propertyMeasured: "inhibition at 0.1 µM"
  measurementUnits: "%"
  recordedNumber: 71

(Q) Consider the molecule CC(C)(C)c1cc2c(s1)CC1(CCN(c3cnc(Sc4ccnc(N)c4Cl)c(N)n3)CC1)[C@@H]2N and give its recorded inhibition at 0.1 µM.
(A) 58

(Q) Consider the molecule Nc1cccc(Sc2cnc(N3CCC4(CC3)Cc3ncccc3[C@H]4N)cn2)c1Cl and give its recorded inhibition at 0.1 µM.
(A) 86

(Q) Consider the molecule COc1ccc2c(c1)[C@@H](N)C1(CCN(c3cnc(Sc4ccnc(N)c4Cl)c(N)n3)CC1)C2 and give its recorded inhibition at 0.1 µM.
(A) 84

(Q) Consider the molecule Nc1nc(N2CCC3(CC2)Cc2ccc(Cl)cc2[C@H]3N)cnc1Sc1ccnc(N)c1Cl and give its recorded inhibition at 0.1 µM.
(A) 83

(Q) Consider the molecule Nc1nccc(Sc2cnc(N3CCC4(CC3)Nc3ccccc3[C@H]4N)cn2)c1Cl and give its recorded inhibition at 0.1 µM.
(A) 86

(Q) Consider the molecule Nc1nccc(Sc2cnc(N3CCC4(CC3)Oc3ccccc3[C@H]4N)cn2)c1Cl and give its recorded inhibition at 0.1 µM.
(A) 71

(Q) Consider the molecule COc1cc2c(cc1Cl)[C@@H](N)C1(CCN(c3cnc(Sc4ccnc(N)c4Cl)c(N)n3)CC1)C2 and give its recorded inhibition at 0.1 µM.
(A) 85

(Q) Consider the molecule Nc1nc(N2CCC3(CC2)Cc2ccc(-n4ccnc4)cc2[C@H]3N)cnc1Sc1ccnc(N)c1Cl and give its recorded inhibition at 0.1 µM.
(A) 65

====

- targetOfAssay: SHP2 (Homo sapiens, UniProt Q06124);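 note: compounds preincubated 30 min at room temperature in the assay mixture, activity referenced to a 0.5% (v/v) DMSO control taken as 100%, run in triplicate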
- protocolDetails: biochemical
- measurementParameters: read-out: SHP2 inhibition (%)@0.1 μM
// reported inhibition at 0.1 µM for each item listed
Hi! Could you send only the number? It should be in %, unit omitted.

Sample records with inhibition at 0.1 µM:
- compound: "NC(=O)c1cc2c(cc1F)CC1(CCN(c3cnc(Sc4ccnc(N)c4Cl)c(N)n3)CC1)[C@@H]2N [Example 43]"
  targetOfAssay: "SHP2 (Homo sapiens, UniProt Q06124)"
  inhibition at 0.1 µM (%): 79
- compound: "Cc1ccc2c(c1)[C@@H](N)C1(CCN(c3cnc(Sc4ccnc(N)c4Cl)c(N)n3)CC1)C2 [Example 23]"
  targetOfAssay: "SHP2 (Homo sapiens, UniProt Q06124)"
  inhibition at 0.1 µM (%): 71

(Q) Consider the compound COc1ccc2c(c1)CC1(CCN(c3cnc(Sc4ccnc(N)c4Cl)c(N)n3)CC1)[C@@H]2N [Example 11] and give its recorded inhibition at 0.1 µM.
(A) 74

(Q) Consider the compound Nc1nc(N2CCC3(CC2)Cc2cnccc2C3N)cnc1Sc1ccnc(N)c1Cl (centres unmarked) [Example 127] and give its recorded inhibition at 0.1 µM.
(A) 83

(Q) Consider the compound Nc1nc(N2CCC3(CC2)Cc2cnccc2[C@H]3N)cnc1Sc1ccnc(N)c1Cl [Example 22] and give its recorded inhibition at 0.1 µM.
(A) 30

(Q) Consider the compound Nc1nccc(Sc2cnc(N3CCC4(CC3)Cc3ccccc3C4N)cn2)c1Cl (centres unmarked) [Example 125] and give its recorded inhibition at 0.1 µM.
(A) 86

(Q) Consider the compound CC(=O)N1CC(F)(F)c2c(Sc3ncc(N4CCC5(CC4)CC4CC4[C@H]5N)nc3N)cccc21 (some centres unmarked) [Example 7] and give its recorded inhibition at 0.1 µM.
(A) 81

(Q) Consider the compound COc1nccc(Sc2cnc(N3CCC4(CC3)Cc3ncccc3[C@H]4N)cn2)c1Cl [Example 99] and give its recorded inhibition at 0.1 µM.
(A) 89
